# PROCEDURE TEXT: antifungal drug efflux pump blockers, triplex strains – S. cerevisiae, Nile Red, multiplex, primary screen (AID 485275);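 also: Nile Red retained in pooled yeast measured as flow cytometry median fluorescence; 0% = buffer negative control and 100% = Enniatin B positive control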
# EXPERIMENTAL CONDITIONS: S. cerevisiae Candida pump triplex, at 10 µM, stronger effect = higher value
Hit rate of the full screen: of about 330,000 compounds, about 1,400 (0.42%) were called active. Shown is part of a subset that was picked to be rich in actives.
READOUT NAME: inhibition

Sample answers from the record:
{"COMPOUND": "COc1cc(OC)cc(-c2sc3ccc(OC)cc3c2-c2ccc3cc[nH]c3c2)c1", "MEAS VALUE": "-0.09% (inactive)"}
{"COMPOUND": "CCOC(=O)C1CCN(C(c2cc3cc(C)cc(C)c3[nH]c2=O)c2nnnn2C2CCCCC2)CC1 (stereo not drawn)", "MEAS VALUE": "0.07% (inactive)"}

# input for lookup
inhibition for COc1ccccc1-c1sc2ccccc2c1-c1ccc(Br)nc1 is -0.34% (inactive)

----------
# PROCEDURE TEXT: antifungal drug efflux pump blockers, triplex strains – S. cerevisiae, Nile Red, multiplex, primary screen (AID 485275)
# EXPERIMENTAL CONDITIONS: S. cerevisiae Candida pump triplex, at 10 µM, stronger effect = higher value
Out of some 330,000 compounds screened, about 1,400 (0.42%) were called active. Many of the other results were omitted from the sample, so actives are more common in it than they were.
Quick reference: inhibition of the listed items.
Write the answer as a number in %, unit excluded.

Cn1nc(C(C)(C)C)c(NC(=O)c2sccc2Cl)c1C(C)(C)C yielded inhibition of 0.22

In plain terms, COc1ccc(-n2nnc3c(=O)n(CC(=O)N4CCC(Cc5ccccc5)CC4)cnc32)cc1 has a documented inhibition of 0.1

The recorded inhibition for CCC(=O)Nc1ccc(S(=O)(=O)Nc2c(NC)c3ccccc3oc2=O)cc1 is 0.02

Form field inhibition, entry O=C(CCc1c[nH]c2ccccc12)NCCOc1ccccc1 : -0.08

Query O=C(/C=C/c1ccc([N+](=O)[O-])cc1)NCCSCc1ccco1 yields inhibition of 0.15

----------
# PROCEDURE TEXT: antifungal drug efflux pump blockers, triplex strains – S. cerevisiae, Nile Red, multiplex, primary screen (AID 485275)
# EXPERIMENTAL CONDITIONS: S. cerevisiae Candida pump triplex, at 10 µM, stronger effect = higher value
Out of some 330,000 compounds screened, about 1,400 (0.42%) were called active. The sample as a whole holds a higher share of actives than the screen did.
READOUT NAME: inhibition (%)
Could you give me the number in %? Just the number is fine.

{"COMPOUND": "O=C(COC(=O)Cn1cnc2ccccc2c1=O)NCc1ccccc1Cl", "MEASUREMENT UNIT": "%", "inhibition": 0.17}
{"COMPOUND": "COc1ccc(C(=O)C2CCCN(Cc3cccn3-c3ccccn3)C2)c(C)c1 (configuration not stated)", "MEASUREMENT UNIT": "%", "inhibition": 0.98}

The reported inhibition of the compound CCCN(CC(=O)Nc1ccccc1C)C(=O)c1ccc2[nH]c3c(c2c1)CC(C)CC3 (configuration not stated) was 0.26

inhibition for O=C(Cn1c(COc2ccccc2)nc2ccccc21)Nc1cc(Cl)c(Cl)cc1Cl is 0.72

compound Cc1nc2sc(C(c3ccco3)N3CCC4(CC3)OCCO4)c(O)n2n1 (configuration not stated) , inhibition observed: -0.06

Record COc1ccccc1/C=C/C=N/n1c(-c2ccc(Cl)cc2Cl)n[nH]c1=S , field inhibition: 0.42

Summary for this compound, C/C(=C\c1ccco1)CN1CCC(N2CCC(C(=O)N3CCOCC3)CC2)CC1 : inhibition is -0.13

----------
This section presents compounds with their documented inhibition values.
# PROCEDURE TEXT: antifungal drug efflux pump blockers, triplex strains – S. cerevisiae, Nile Red, multiplex, primary screen (AID 485275)
# EXPERIMENTAL CONDITIONS: S. cerevisiae Candida pump triplex, at 10 µM, stronger effect = higher value
Among all 330,000 compounds or so, about 1,400 (0.42%) were called active. The entries come from a sample that favours actives as a whole.
Report the value in % with no unit label.

Some compounds with known inhibition results, for comparison:
{"COMPOUND": "C/C(N)=C(/C#N)C(=O)COC(=O)c1cc(-c2ccccc2)nc2ccc(Br)cc12", "MEASUREMENT UNIT": "%", "MEAS VALUE": 0.06}
{"COMPOUND": "CCC(Cc1ccccc1)NS(=O)(=O)c1ccc2c(c1)NC(=O)CS2 (stereo unspecified)", "MEASUREMENT UNIT": "%", "MEAS VALUE": -0.01}
{"COMPOUND": "COc1cc(NC(=O)c2ccc3c(c2)OCO3)ccc1NC(=O)c1cccs1", "MEASUREMENT UNIT": "%", "MEAS VALUE": -0.1}
{"COMPOUND": "Cc1ccc(Cn2c(C)nc3c(c2=O)c2nc4ccccc4nc2n3Cc2ccco2)cc1", "MEASUREMENT UNIT": "%", "MEAS VALUE": 0.94}
{"COMPOUND": "Cc1csc(NC(=O)c2ccc(-c3ccc(Cl)cc3Cl)o2)n1", "MEASUREMENT UNIT": "%", "MEAS VALUE": 16.6}

Record O=C(O)CCCCCCCCCC[n+]1ccccc1 , field inhibition: 0.3

Note to self: inhibition recorded for CCCCN1C(=O)/C(=C2/C=CC=CN2C)SC1=S was 0.04

Reported inhibition of Nc1ccc2nc3c(=O)[nH]c(=S)[nH]c3nc2c1 : 0.97

Per the records, this compound ( Cc1ccccc1Nc1nc(-c2cccnc2)cs1 ) has inhibition equal to 0.3

----------
# PROCEDURE TEXT: antifungal drug efflux pump blockers, triplex strains – S. cerevisiae, Nile Red, multiplex, primary screen (AID 485275);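 also: Nile Red retained in pooled yeast measured as flow cytometry median fluorescence; 0% = buffer negative control and 100% = Enniatin B positive control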
# EXPERIMENTAL CONDITIONS: S. cerevisiae Candida pump triplex, at 10 µM, stronger effect = higher value
Out of some 330,000 compounds screened, about 1,400 (0.42%) were called active. What follows is part of a selection rich in actives, with near analogues and random picks from the rest.
READOUT NAME: inhibition (%)
Respond with the bare value in %.

# annotated cases, reported inhibition shown
{"MOLECULE": "CN(CCNC(=O)c1cc2c(-c3ccccc3F)nn(C)c2s1)C1CCCCC1", "MEASUREMENT UNIT": "%", "MEAS VALUE": 0}
{"MOLECULE": "CCOC(=O)N1CCN(C(=O)C2CCN(S(C)(=O)=O)CC2)CC1", "MEASUREMENT UNIT": "%", "MEAS VALUE": -0.13}

The molecule CN(C)c1nc2n(c(=O)n1)CCO2 showed inhibition equal to 0.06

Sure, the documented inhibition for CCn1cc(C(=O)N2CC(C)CC(C)C2)c(=O)c2cc(S(=O)(=O)N3CCCC3)ccc21 (stereo not given) is 0.08

Given item [2H]C(CCOS(N)(=O)=O)c1ccccc1 (stereo not given) , the value recorded as its inhibition is -0.09

Kindly note the recorded inhibition for Cc1ccc(NC(=O)c2ccc(Cl)nc2)cc1S(=O)(=O)N1CCOCC1 , which is 0.15

Quick note, inhibition for COc1cccc(NC(=O)CN(C)C(=O)/C=C/c2cc(OC)ccc2OC)c1 landed at 15.2

----------
# PROCEDURE TEXT: antifungal drug efflux pump blockers, triplex strains – S. cerevisiae, Nile Red, multiplex, primary screen (AID 485275);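 also: Nile Red retained in pooled yeast measured as flow cytometry median fluorescence; 0% = buffer negative control and 100% = Enniatin B positive control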
# EXPERIMENTAL CONDITIONS: S. cerevisiae Candida pump triplex, at 10 µM
In all, about 330,000 compounds went through this assay and about 1,400 (0.42%) were called active.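 Rule for the calls: active = plate passing quality check with inhibition over a set limit, or well fluorescence over plate mean plus 4 SD; inactive = the rest.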 This excerpt belongs to a sample that is enriched for actives.
Mark one answer only. Choices: label 1 (active), label 0 (inactive)

Solved entries (count: 3):
{"MOLECULE": "O=C(Cc1ccc(Br)cc1)NCCN1CCOCC1", "ASSIGNED CLASS": "label 0"}
{"MOLECULE": "COC(=O)[C@]1(CC(C)C)N[C@H](c2ccc(SC3CCCCC3)cc2)[C@@H]2C(=O)N(C)C(=O)[C@@H]21", "ASSIGNED CLASS": "label 0"}
{"MOLECULE": "O=C(OCc1ccc(-c2ccccc2)cc1)c1cccc(O)c1", "ASSIGNED CLASS": "label 1"}

Ask: Recorded test outcome, item CSc1cccc(NC(=O)C2CCCN2S(=O)(=O)c2ccc3c(c2)CCC(=O)N3)c1 (stereo not given)
Reply: label 0

Ask: Outcome logged for O=C(CSc1nnc(-c2cnccn2)n1Cc1ccco1)c1ccc(Cl)c(Cl)c1 in this assay:
Reply: label 0

----------
# PROCEDURE TEXT: antifungal drug efflux pump blockers, triplex strains – S. cerevisiae, Nile Red, multiplex, primary screen (AID 485275);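 also: Nile Red retained in pooled yeast measured as flow cytometry median fluorescence; 0% = buffer negative control and 100% = Enniatin B positive control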
# EXPERIMENTAL CONDITIONS: S. cerevisiae Candida pump triplex, at 10 µM, stronger effect = higher value
In all, about 330,000 compounds went through this assay and about 1,400 (0.42%) were called active. The list comes from a sample in which actives are over-represented; it also holds close analogues and randomly drawn compounds.
READOUT NAME: inhibition (%)
Note: unit % is implicit; provide only the numeric part.

{"COMPOUND": "CCn1ncc(C2=NOC(C(=O)Nc3ccccc3C(=O)OC)C2)c1C (configuration not stated)", "MEASUREMENT UNIT": "%", "inhibition": -0.18}
{"COMPOUND": "CC(=O)Nc1ccc(S(=O)(=O)N2CCC(C(=O)NC3CC3)CC2)cc1", "MEASUREMENT UNIT": "%", "inhibition": -0.06}
{"COMPOUND": "Cc1ccccc1OCC(=O)Nc1nc(C)c(C(=O)N(C)C)s1", "MEASUREMENT UNIT": "%", "inhibition": -0.09}

Measured inhibition, C=CC[n+]1c(-c2ccc(C)cc2)csc1NNC(=O)Nc1ccccc1 : -0.18

compound CCCCCC(=O)Nc1ccc(C(=O)N/N=C/c2ccc([N+](=O)[O-])cc2)cc1 , inhibition observed: 9.14

get_value(item= O=C(NC(=S)Nc1ccc2oc(=O)ccc2c1)c1ccc(-c2cccc(Cl)c2Cl)o1 , readout=inhibition) returns 0.12

Given item c1cnc(Nc2nc(-c3ccc4ccccc4c3)cs2)nc1 , the value recorded as its inhibition is 0.79
